B1: library; a variant is named by its letters at N, in order (parent)
chain: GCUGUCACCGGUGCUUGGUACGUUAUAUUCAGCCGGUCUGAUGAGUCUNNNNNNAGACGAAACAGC

- Variants of: B1
- PROCEDURE SUMMARY: normalized RNA/DNA level without ligand (relative to sTRSVctl = 100) (log10 (% of sTRSVctl)); HEK293T overexpressing SLC46A1; higher = less ribozyme self-cleavage, higher mRNA level
- SETTINGS: without (6R,S)-folinic acid; ligand present: no
VALUE KIND: normalized RNA/DNA level without ligand (log10)
Enter a number only.

Recorded normalized RNA/DNA level without ligand (log10), per entry:
Exercise: normalized RNA/DNA level without ligand (log10) for GCUGUCACCGGUGCUUGGUACGUUAUAUUCAGCCGGUCUGAUGAGUCUGGCCGUAGACGAAACAGC ?
Solution: 2.08

Exercise: Quick one: normalized RNA/DNA level without ligand (log10) for GCUGUCACCGGUGCUUGGUACGUUAUAUUCAGCCGGUCUGAUGAGUCUAUAGUGAGACGAAACAGC ?
Solution: 1.59

Exercise: // returns reported normalized RNA/DNA level without ligand (log10) for input GCUGUCACCGGUGCUUGGUACGUUAUAUUCAGCCGGUCUGAUGAGUCUACGGUUAGACGAAACAGC
Solution: 1.99

API: the following record is the query input.
Exercise: I would be grateful if you could share the reported normalized RNA/DNA level without ligand (log10) for GCUGUCACCGGUGCUUGGUACGUUAUAUUCAGCCGGUCUGAUGAGUCUACCGACAGACGAAACAGC .
Solution: 2.04
